Values were extracted from patent US20220062240A1.

Biological target: MAP3K7/MAP3K7IP1 (TAK1-TAB1) (Homo sapiens, UniProt O43318)
Sequence (O43318 with tags, fused parts or gaps limits assumed): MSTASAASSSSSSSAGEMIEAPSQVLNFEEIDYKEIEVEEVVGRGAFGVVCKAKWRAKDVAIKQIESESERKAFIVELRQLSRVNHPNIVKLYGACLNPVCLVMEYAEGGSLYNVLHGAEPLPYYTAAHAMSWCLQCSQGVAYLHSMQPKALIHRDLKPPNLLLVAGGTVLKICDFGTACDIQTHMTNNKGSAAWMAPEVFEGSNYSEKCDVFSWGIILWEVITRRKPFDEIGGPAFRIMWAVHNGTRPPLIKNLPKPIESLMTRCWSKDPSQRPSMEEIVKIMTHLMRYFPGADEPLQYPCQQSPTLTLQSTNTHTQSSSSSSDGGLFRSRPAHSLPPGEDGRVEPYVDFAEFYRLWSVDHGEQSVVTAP
Assay: Kinase IC50 (SelectScreen)
Settings: Table 8
observed_property: IC50 (nM)
Write the number in nM without appending the unit.

Which IC50 is reported for this molecule? CN1CCN(c2cc(C(=O)Nc3cc4cc(-c5cnn(C)c5)ccc4cn3)ccn2)CC1
37
